Origin of the recorded values: patent US20240024338A1

test: In vitro bioconversion study (skin homogenates), rat; settings: rat skin homogenate 3 mg/mL, prodrug 2.5 μg/mL, 37° C.
Quick reference: T1/2 of the listed items.
readout_name: T1/2 (h)

{"molecule": "C[C@@](Cc1ccc(O)c(OP(=O)(O)O)c1)(NN)C(=O)O [Carbidopa 3′-phosphate, Carbidopa 3′-monophosphate]", "numeric_readout": 12.1}
{"molecule": "N[C@@H](Cc1ccc(O)c(OP(=O)(O)O)c1)C(=O)O [L-dopa 3′-phosphate]", "numeric_readout": 12.3}

###

Quick reference: CLp (plasma clearance), Value of the listed items.
conditions: human
readout_name: CLp (plasma clearance), Value (L/h)

{"compound": "C[C@@](Cc1ccc(O)c(O)c1)(NN)C(=O)O [Carbidopa]", "readout_name": "CLp (plasma clearance), Value", "numeric_readout": 18}
{"compound": "N[C@@H](Cc1ccc(OP(=O)(O)O)c(O)c1)C(=O)O [L-dopa 4′-phosphate]", "readout_name": "CLp (plasma clearance), Value", "numeric_readout": 100}
{"compound": "N[C@@H](Cc1ccc(O)c(O)c1)C(=O)O [L-dopa, L-3,4-dihydroxyphenylalanine]", "readout_name": "CLp (plasma clearance), Value", "numeric_readout": 24}
{"compound": "C[C@@](Cc1ccc(OP(=O)(O)O)c(O)c1)(NN)C(=O)O [Carbidopa 4′-phosphate, Carbidopa 4′-monophosphate]", "readout_name": "CLp (plasma clearance), Value", "numeric_readout": 141}

###

assay: In vitro bioconversion study (skin homogenates), human; details: human skin homogenate 3 mg/mL, prodrug 2.5 μg/mL, 37° C.

{"compound": "N[C@@H](Cc1ccc(OP(=O)(O)O)c(O)c1)C(=O)O [L-dopa 4′-phosphate]", "L-Dopa or Carbidopa Formation": "Yes"}
{"compound": "N[C@@H](Cc1ccc(OP(=O)(O)O)c(OP(=O)(O)O)c1)C(=O)O [L-dopa 3′,4′-diphosphate]", "L-Dopa or Carbidopa Formation": "No"}
{"compound": "C[C@@](Cc1ccc(O)c(OP(=O)(O)O)c1)(NN)C(=O)O [Carbidopa 3′-phosphate, Carbidopa 3′-monophosphate]", "L-Dopa or Carbidopa Formation": "Yes"}
{"compound": "N[C@@H](Cc1ccc(O)c(OP(=O)(O)O)c1)C(=O)O [L-dopa 3′-phosphate]", "L-Dopa or Carbidopa Formation": "Yes"}
{"compound": "C[C@@](Cc1ccc(OP(=O)(O)O)c(OP(=O)(O)O)c1)(NN)C(=O)O [Carbidopa 3′,4′-diphosphate]", "L-Dopa or Carbidopa Formation": "No"}
{"compound": "C[C@@](Cc1ccc(OP(=O)(O)O)c(O)c1)(NN)C(=O)O [Carbidopa 4′-phosphate, Carbidopa 4′-monophosphate]", "L-Dopa or Carbidopa Formation": "Yes"}

###

test: In vitro bioconversion study (skin homogenates), human; conditions: human skin homogenate 3 mg/mL, prodrug 2.5 μg/mL, 37° C.
Quick reference: T1/2 of the listed items.
readout_name: T1/2 (h)

{"compound": "C[C@@](Cc1ccc(O)c(OP(=O)(O)O)c1)(NN)C(=O)O [Carbidopa 3′-phosphate, Carbidopa 3′-monophosphate]", "readout_unit": "h", "numeric_readout": 10}
{"compound": "N[C@@H](Cc1ccc(O)c(OP(=O)(O)O)c1)C(=O)O [L-dopa 3′-phosphate]", "readout_unit": "h", "numeric_readout": 11.2}

###

test: In vitro bioconversion study (blood), human; assay type: in vitro ADME; details: prodrug 2.5 μg/mL, 37° C.

{"compound": "C[C@@](Cc1ccc(OP(=O)(O)O)c(OP(=O)(O)O)c1)(NN)C(=O)O [Carbidopa 3′,4′-diphosphate]", "L-Dopa or Carbidopa Formation": "No"}
{"compound": "N[C@@H](Cc1ccc(OP(=O)(O)O)c(OP(=O)(O)O)c1)C(=O)O [L-dopa 3′,4′-diphosphate]", "L-Dopa or Carbidopa Formation": "Yes"}
{"compound": "C[C@@](Cc1ccc(O)c(OP(=O)(O)O)c1)(NN)C(=O)O [Carbidopa 3′-phosphate, Carbidopa 3′-monophosphate]", "L-Dopa or Carbidopa Formation": "Yes"}
{"compound": "N[C@@H](Cc1ccc(O)c(OP(=O)(O)O)c1)C(=O)O [L-dopa 3′-phosphate]", "L-Dopa or Carbidopa Formation": "Yes"}

###

Quick reference: T1/2 of the listed items.
experiment: In vitro bioconversion study (skin homogenates), mini-pig; conditions: mini-pig skin homogenate 3 mg/mL, prodrug 2.5 μg/mL, 37° C.

{"molecule": "N[C@@H](Cc1ccc(O)c(OP(=O)(O)O)c1)C(=O)O [L-dopa 3′-phosphate]", "readout_unit": "h", "T1/2": 14.8}
{"molecule": "C[C@@](Cc1ccc(O)c(OP(=O)(O)O)c1)(NN)C(=O)O [Carbidopa 3′-phosphate, Carbidopa 3′-monophosphate]", "readout_unit": "h", "T1/2": 6.88}

###

test: In vitro bioconversion study (skin homogenates), rat; settings: rat skin homogenate 3 mg/mL, prodrug 2.5 μg/mL, 37° C.

{"compound": "C[C@@](Cc1ccc(O)c(OP(=O)(O)O)c1)(NN)C(=O)O [Carbidopa 3′-phosphate, Carbidopa 3′-monophosphate]", "L-Dopa or Carbidopa Formation": "Yes"}
{"compound": "C[C@@](Cc1ccc(OP(=O)(O)O)c(OP(=O)(O)O)c1)(NN)C(=O)O [Carbidopa 3′,4′-diphosphate]", "L-Dopa or Carbidopa Formation": "No"}
{"compound": "N[C@@H](Cc1ccc(O)c(OP(=O)(O)O)c1)C(=O)O [L-dopa 3′-phosphate]", "L-Dopa or Carbidopa Formation": "Yes"}
{"compound": "N[C@@H](Cc1ccc(OP(=O)(O)O)c(OP(=O)(O)O)c1)C(=O)O [L-dopa 3′,4′-diphosphate]", "L-Dopa or Carbidopa Formation": "No"}

###

test: In vitro bioconversion study (blood), rat; settings: prodrug 2.5 μg/mL, 37° C.

{"compound": "N[C@@H](Cc1ccc(OP(=O)(O)O)c(OP(=O)(O)O)c1)C(=O)O [L-dopa 3′,4′-diphosphate]", "readout_unit": "min", "T1/2": 6}
{"compound": "C[C@@](Cc1ccc(OP(=O)(O)O)c(OP(=O)(O)O)c1)(NN)C(=O)O [Carbidopa 3′,4′-diphosphate]", "readout_unit": "min", "T1/2": 53}
{"compound": "C[C@@](Cc1ccc(O)c(OP(=O)(O)O)c1)(NN)C(=O)O [Carbidopa 3′-phosphate, Carbidopa 3′-monophosphate]", "readout_unit": "min", "T1/2": 20.5}
{"compound": "N[C@@H](Cc1ccc(O)c(OP(=O)(O)O)c1)C(=O)O [L-dopa 3′-phosphate]", "readout_unit": "min", "T1/2": 20.6}

###

experiment: In vitro bioconversion study (blood), mini-pig; format: in vitro ADME; conditions: prodrug 2.5 μg/mL, 37° C.

{"compound": "C[C@@](Cc1ccc(O)c(OP(=O)(O)O)c1)(NN)C(=O)O [Carbidopa 3′-phosphate, Carbidopa 3′-monophosphate]", "L-Dopa or Carbidopa Formation": "Yes"}
{"compound": "N[C@@H](Cc1ccc(OP(=O)(O)O)c(OP(=O)(O)O)c1)C(=O)O [L-dopa 3′,4′-diphosphate]", "L-Dopa or Carbidopa Formation": "Yes"}
{"compound": "N[C@@H](Cc1ccc(O)c(OP(=O)(O)O)c1)C(=O)O [L-dopa 3′-phosphate]", "L-Dopa or Carbidopa Formation": "Yes"}
{"compound": "C[C@@](Cc1ccc(OP(=O)(O)O)c(OP(=O)(O)O)c1)(NN)C(=O)O [Carbidopa 3′,4′-diphosphate]", "L-Dopa or Carbidopa Formation": "No"}

###

test: In vitro bioconversion study (skin homogenates), mini-pig; conditions: mini-pig skin homogenate 3 mg/mL, prodrug 2.5 μg/mL, 37° C.

{"molecule": "N[C@@H](Cc1ccc(OP(=O)(O)O)c(OP(=O)(O)O)c1)C(=O)O [L-dopa 3′,4′-diphosphate]", "L-Dopa or Carbidopa Formation": "No"}
{"molecule": "C[C@@](Cc1ccc(OP(=O)(O)O)c(O)c1)(NN)C(=O)O [Carbidopa 4′-phosphate, Carbidopa 4′-monophosphate]", "L-Dopa or Carbidopa Formation": "Yes"}
{"molecule": "C[C@@](Cc1ccc(O)c(OP(=O)(O)O)c1)(NN)C(=O)O [Carbidopa 3′-phosphate, Carbidopa 3′-monophosphate]", "L-Dopa or Carbidopa Formation": "Yes"}
{"molecule": "N[C@@H](Cc1ccc(OP(=O)(O)O)c(O)c1)C(=O)O [L-dopa 4′-phosphate]", "L-Dopa or Carbidopa Formation": "Yes"}
{"molecule": "C[C@@](Cc1ccc(OP(=O)(O)O)c(OP(=O)(O)O)c1)(NN)C(=O)O [Carbidopa 3′,4′-diphosphate]", "L-Dopa or Carbidopa Formation": "No"}
{"molecule": "N[C@@H](Cc1ccc(O)c(OP(=O)(O)O)c1)C(=O)O [L-dopa 3′-phosphate]", "L-Dopa or Carbidopa Formation": "Yes"}
